# Protocol Text: chemical genetic growth profiling, strain panel (AID 1159580);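 also: tested at 20 µM; growth read once vehicle control cultures reached saturation at 30 °C; 1 = growth at the plate median or of vehicle wells; lower values mean less growth of the strain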
# Experimental Context: S. cerevisiae deletion strains, growth OD, locus YDR101C, strain arx1, hits give low values
About 2,000 (36%) of roughly 5,500 compounds were called active. Another 18% or so got no clear call; they are omitted. This is one part of the list.
Experimental Readout: normalized growth
One number for each entry.

| Molecule | normalized growth |
| --- | --- |
| CC1=C(/C=C/C(C)=C/C=C/C(C)=C/C=C/C=C(C)/C=C/C=C(C)/C=C/C2=C(C)CCCC2(C)C)C(C)(C)CCC1 | 0.982 |
| CC(=O)OC/C=C(C)/C=C/C=C(C)/C=C/C1=C(C)CCCC1(C)C | 0.988 |
| CN(C)CCCO[C@H]1[C@@H](C(O)CO)OC2OC(C)(C)O[C@@H]21 (some centres not stated) | 0.981 |
| O=C(O)CCC(=O)c1ccc(-c2ccccc2)cc1 | 0.964 |
| CCCSP(=O)(OCC)SCCC | 0.99 |

For each listed entry, give its normalized growth.
1. O=c1cccc2n1C[C@H]1CNCC2C1
2. CCCN(CCC)C(=O)C(CCC(=O)O)NC(=O)c1ccccc1 (configuration not stated)
3. O=C1N=C(O)CN1/N=C\c1ccc(-c2ccc([N+](=O)[O-])cc2)o1
4. O=C(O)CCCCC1SCC2NC(=O)NC21 (configuration not stated)
5. COC(=O)[C@H]1[C@H]2C[C@@H]3c4[nH]c5cc(OC)ccc5c4CCN3C[C@H]2C[C@@H](OC(=O)c2cc(OC)c(OC)c(OC)c2)[C@@H]1OC
6. O=c1ccn([C@@H]2O[C@H](COP(=O)(O)OP(=O)(O)OP(=O)(O)O)[C@@H](O)[C@H]2O)c(=O)[nH]1
7. O=C1OCCN1/N=C\c1ccc([N+](=O)[O-])o1

1: 0.966; 2: 0.994; 3: 1.02; 4: 0.98; 5: 1; 6: 1.03; 7: 0.92

For each listed entry, give its normalized growth.
1. CS(=O)(=O)OCCCCOS(C)(=O)=O
2. CC(=O)OCC(=O)[C@@]12OC(C)(C)O[C@@H]1CC1C3C[C@H](F)C4=CC(=O)C=C[C@]4(C)[C@@]3(F)[C@@H](O)C[C@@]12C (some centres not stated)
3. COc1ccc(-c2cc(C(F)F)nn2-c2ccc(S(N)(=O)=O)cc2)cc1F
4. NC(=O)N/N=C\c1ccc([N+](=O)[O-])o1
5. CN=C1CN(O)C(c2ccccc2)=c2cc(Cl)ccc2=N1
6. CC[C@@H](C(=O)[C@@H](C)[C@@H](O)[C@H](C)[C@@H]1O[C@@H]([C@@H](CC)C(=O)O)CC[C@@H]1C)[C@H]1OC2(C=C[C@@H](O)[C@]3(CC[C@@](C)([C@H]4CC[C@](O)(CC)[C@H](C)O4)O3)O2)[C@H](C)C[C@@H]1C (some centres not stated)
7. CCn1cc(C(=O)O)c(=O)c2cnc(N3CCCC3)nc21

1. 0.961
2. 0.965
3. 1.01
4. 0.977
5. 1.01
6. 0.891
7. 0.999
